Assignment: determine reported Maximum inhibition rate (%) for the given binders.
- experimental.target: T1, human OX40 on cells (CHO-K1/hu OX40) (human, UniProt P43489 29-277)
- T1 construct: whole, on cells; Also used here for OX40 on the HEK293/OX40/NF-kb reporter cells and on human T cells in the functional assays; also called CHO-K1/OX40; human OX40 cells
- T1 sequence (looked up): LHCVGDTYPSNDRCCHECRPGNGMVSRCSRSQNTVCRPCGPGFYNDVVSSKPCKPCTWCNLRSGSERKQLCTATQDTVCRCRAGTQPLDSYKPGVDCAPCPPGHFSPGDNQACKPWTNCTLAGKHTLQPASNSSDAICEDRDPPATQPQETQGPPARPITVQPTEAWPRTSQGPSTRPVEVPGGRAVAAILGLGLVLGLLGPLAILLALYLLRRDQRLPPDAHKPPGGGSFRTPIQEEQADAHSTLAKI
- assay.text: FACS, blocking of biotin-human OX40L on CHO-K1/hu OX40 cells
Answers are plain numbers, in %.

Hi there! I need Maximum inhibition rate (%) for each item below, if you can.
1. PR002068 (antibody, human IgG1, V domains shown, no light chain; also called anti-OX40 HCAb antibody) VH: EVQLLESGGGLVQPGGSLRLSCAASGFSFSSYAMTWVRQAPGKGLEWVSAISGGGGSIFYADSVRGRFTISRDNSKNTLYLQMNSLRAEDTAVYYCANGMTGSTDVDYWGQGTQVTVSS
2. PR002057 (antibody, human IgG1, V domains shown, no light chain; also called anti-OX40 HCAb antibody) VH: EVQLLESGGGLVQPGGSLRLSCAASGFIFSSYAMSWVRQAPGKGLEWVSAISGGGGSTFYADSVRGRFTISRDNSKNTLYLQMNSLRAEDTAVYYCADGMTGTTDVDYWGQGTLVTVSS
3. PR002076 (antibody, human IgG1, V domains shown, no light chain; also called anti-OX40 HCAb antibody) VH: EVQLLESGGGLVQPGGSLRLSCAASGFTFSSYAMSWVRQAPGKGLEWVSAISGSGGNTYYADSVRGRFTISRDNSKNTLYLQMNSLRAEDTAVYYCANGMTGTTDVDYWGQGTRVTVSS
4. PR002074 (antibody, human IgG1, V domains shown, no light chain; also called anti-OX40 HCAb antibody) VH: EVQLLESGGGLVQPGGSLRLSCAASGFTFSSYAMSWVRQAPGKGLEWVSGISGGGNNTFYADSVRGRFTISRDNSKNTLYLQMNSLRAEDTAVYYCMRGWELPLLENWGQGTLVTVSS

Result:
1: 25; 2: 12; 3: 0; 4: 81
